- target_desc: DNA-(apurinic or apyrimidinic site) endonuclease (Homo sapiens, UniProt P27695)
- Sequence (P27695 whole entry): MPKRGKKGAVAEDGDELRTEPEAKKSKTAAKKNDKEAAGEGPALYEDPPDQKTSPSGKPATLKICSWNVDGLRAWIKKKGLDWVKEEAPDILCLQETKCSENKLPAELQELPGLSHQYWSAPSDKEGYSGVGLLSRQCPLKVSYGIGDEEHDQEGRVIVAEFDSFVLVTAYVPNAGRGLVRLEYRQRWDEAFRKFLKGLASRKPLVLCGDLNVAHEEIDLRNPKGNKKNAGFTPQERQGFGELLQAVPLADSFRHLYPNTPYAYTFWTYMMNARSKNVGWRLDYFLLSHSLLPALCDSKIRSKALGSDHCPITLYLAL
- method_notes: Gel-Based Assay
// values below are reported pIC50
Scale: pIC50 equals -log10([C]), with [C] in mol/L.

molecule: COc1cccc(CN=Nc2cc(C)nc3cc4c(cc23)OCO4)c1
pIC50: 5.00

Looking up CCn1c2ccccc2c2cc(CN=Nc3cc(C)nc4cc5c(cc34)OCO5)ccc21 , I see its pIC50 listed as 5.39

Looking up Cc1cc(N=NCc2c(C)n(C)n(-c3ccccc3)c2=O)c2cc3c(cc2n1)OCO3 , I see its pIC50 listed as 4.46

Looking up Cc1cc(N=NCc2ccc3c(c2)OCO3)c2cc3c(cc2n1)OCO3 , I see its pIC50 listed as 5.54

Looking up Cc1cc(N=NC(C)c2cn(C)n(-c3ccccc3)c2=O)c2cc3c(cc2n1)OCO3 (stereo unspecified) , I see its pIC50 listed as 5.36

----------
- target_desc: DNA-(apurinic or apyrimidinic site) endonuclease (Homo sapiens, UniProt P27695)
- method_notes: Molecular Beacon Assay
property_measured: Ki (µM)
Quick note: give the figure in µM, leave out the unit.

compound: COc1ccc(C(Cc2ccccc2)/N=N/c2ccc([N+](=O)[O-])c([N+](=O)[O-])c2)cc1 (stereo not drawn) [NSC131534, 11]
readout_value: 6.7

Looking up CCn1c2ccccc2c2cc(CN=Nc3cc(C)nc4cc5c(cc34)OCO5)ccc21 [NSC332395, 4] , I see its Ki listed as 0.12

Looking up Cc1cc(N=NC(C)c2cn(C)n(-c3ccccc3)c2=O)c2cc3c(cc2n1)OCO3 (stereo not drawn) [NSC332398, 1] , I see its Ki listed as 0.18

Looking up O=C(/C=C\c1ccc([N+](=O)[O-])cc1)NCCCCNC(=O)/C=C/c1ccc([N+](=O)[O-])cc1 [NSC107215, 10] , I see its Ki listed as 17

Looking up Cc1ccc2nc(C)cc(N=NC(C)c3cn(C)n(-c4ccccc4)c3=O)c2c1 (stereo not drawn) [NSC300598, 7] , I see its Ki listed as 10.9

Looking up Cc1cc(N=NCc2ccc3c(c2)OCO3)c2cc3c(cc2n1)OCO3 [NSC332389, 3] , I see its Ki listed as 0.19

Looking up O=C(O)C(CCCCNc1ccc([N+](=O)[O-])cc1[N+](=O)[O-])Nc1ccc([N+](=O)[O-])cc1[N+](=O)[O-] (stereo not drawn) [NSC89640, 9] , I see its Ki listed as 13

Looking up COc1cccc(CN=Nc2cc(C)nc3cc4c(cc23)OCO4)c1 [NSC332384, 2] , I see its Ki listed as 0.22

----------
- target_desc: DNA-(apurinic or apyrimidinic site) endonuclease (Homo sapiens, UniProt P27695)
- method_notes: Molecular Beacon Assay
// values below are reported Ki
Your answer should be a number followed by the unit of measure.

compound: Cc1cc(N=NCc2c(C)n(C)n(-c3ccccc3)c2=O)c2cc3c(cc2n1)OCO3 [NSC332396, 5]
readout_value: 0.68 µM

Looking up O=C(CC(=Nc1ccccc1)C(=O)c1ccccc1)c1ccccc1 [NSC402686, 14] , I see its Ki listed as 37 µM

Looking up N=c1[nH]nc2nc(CC(=O)c3ccccc3[N+](=O)[O-])c(CC(=O)c3ccccc3[N+](=O)[O-])nn12 [NSC614430, 13] , I see its Ki listed as 4.9 µM

Origin of measurements: BindingDB's records for doi:10.1021/bi300490r
